Listing: IC50 of selected compounds
target: GRK2 (Homo sapiens, UniProt P25098); assay: Second ADPGlo GRK2 Inhibition Assay (Example 3); type: biochemical; settings: ADP-Glo, 20 μM ATP; read-out: Second ADPGlo Enzymatic GRK2 Assay: IC50 (nM) (Example 3)

>>> endpoint_result("Cc1ncsc1-c1ccc(CNC(=O)[C@@H]2C[C@@H](O)CN2C(=O)[C@@H](NC(=O)CCCCCCOc2cccc(CNC(=O)c3cccc(NCc4nnc(-c5ccncn5)n4C)c3)c2)C(C)(C)C)cc1")
"< 100 nM"
>>> endpoint_result("Cc1ncsc1-c1ccc(CNC(=O)[C@@H]2C[C@@H](O)CN2C(=O)[C@@H](NC(=O)COCCCOCCCCCOc2cccc(CNC(=O)c3cccc(NCc4nnc(-c5ccncn5)n4C)c3)c2)C(C)(C)C)cc1")
"< 100 nM"
>>> endpoint_result("COc1cc(OCC(=O)NCCOCCOCCNC(=O)COCC(=O)N[C@H](C(=O)N2C[C@H](O)C[C@H]2C(=O)NCc2ccc(-c3scnc3C)cc2)C(C)(C)C)ccc1CNC(=O)c1cccc(NCc2nnc(-c3ccncn3)n2C)c1")
"100 to 1000 nM"
>>> endpoint_result("COc1cc(OCCNC(=O)CCOCCOCCOCCNC(=O)Nc2cccc3c2CN(C2CCC(=O)NC2=O)C3=O)ccc1CNC(=O)c1cccc(NCc2nnc(-c3ccncn3)n2C)c1 (centres unmarked)")
"> 1000 nM"

Next item in the queue.
(Q) Please tell me: IC50 of Cn1c(CNc2cccc(C(=O)NCc3cccc(OCCCC(=O)Nc4cccc5c4CN(C4CCC(=O)NC4=O)C5=O)c3)c2)nnc1-c1ccncn1 (centres unmarked) , system GRK2 (Homo sapiens, UniProt P25098)?
(A) < 100 nM

* * *

Target: GRK2 (Homo sapiens, UniProt P25098)
Sequence (P25098 1-689): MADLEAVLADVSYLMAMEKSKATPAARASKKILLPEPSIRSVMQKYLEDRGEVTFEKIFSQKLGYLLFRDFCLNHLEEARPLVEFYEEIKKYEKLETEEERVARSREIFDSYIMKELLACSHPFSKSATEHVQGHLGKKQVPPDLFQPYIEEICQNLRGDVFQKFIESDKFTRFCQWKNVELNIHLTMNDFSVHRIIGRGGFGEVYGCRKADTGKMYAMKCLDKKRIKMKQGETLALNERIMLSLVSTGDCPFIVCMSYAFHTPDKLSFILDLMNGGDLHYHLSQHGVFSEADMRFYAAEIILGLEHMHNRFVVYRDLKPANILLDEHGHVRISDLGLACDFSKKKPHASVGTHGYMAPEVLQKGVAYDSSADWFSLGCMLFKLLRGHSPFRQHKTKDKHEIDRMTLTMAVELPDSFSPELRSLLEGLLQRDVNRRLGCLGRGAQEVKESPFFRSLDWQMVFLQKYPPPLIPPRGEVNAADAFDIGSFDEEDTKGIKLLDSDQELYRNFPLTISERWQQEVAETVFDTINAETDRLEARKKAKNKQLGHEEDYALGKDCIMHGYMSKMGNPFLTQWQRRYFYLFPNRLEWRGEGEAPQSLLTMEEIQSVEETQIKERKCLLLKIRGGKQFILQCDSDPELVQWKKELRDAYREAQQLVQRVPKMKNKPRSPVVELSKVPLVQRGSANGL
Assay: GRK2 Degradation Assay and Western Blot in PAXF1657 cells
Assay type: cell-based
Design: endogenous in cells; host or cells: PAXF1657
Conditions: Conc 0.3 uM; read-out: Degradation Assay - 3 point: Degradation (%)
Listing: inhibition at 0.3 µM of selected molecules
Please don't drop the unit; write it after the number.

Illustrative cases are given below, each with its answer.
>>> endpoint_result("CN[C@@H](C)C(=O)N[C@H](C(=O)N1CCC[C@H]1c1nc(C(=O)c2cccc(OCc3cn(CCCCCCOc4cccc([C@@H](C)NC(=O)c5cccc(NCc6nnc(-c7ccncn7)n6C)c5)c4)nn3)c2)cs1)C1CCCCC1")
"87%"
>>> endpoint_result("C[C@@H](NC(=O)c1cccc(NCc2nnc(-c3ccncn3)n2C)c1)c1cccc(OCCCCCOCCCOCCOc2ccc3c(c2)CN(C2CCC(=O)NC2=O)C3=O)c1 (some centres unmarked)")
"92%"

(Q) Given C[C@@H](NC(=O)c1cccc(NCc2nnc(-c3ccncn3)n2C)c1)c1cccc(OCCCCCOCCCOCC(=O)N2CCN(c3ccc4c(c3)CN(C3CCC(=O)NC3=O)C4=O)CC2)c1 (some centres unmarked) , state its recorded inhibition at 0.3 µM.
(A) 55%

(Q) Given C[C@@H](NC(=O)c1cccc(NCc2nnc(-c3ccncn3)n2C)c1)c1cccc(OCCCCCCn2cc(CCCCC(=O)Nc3cccc4c3CN(C3CCC(=O)NC3=O)C4=O)nn2)c1 (some centres unmarked) , state its recorded inhibition at 0.3 µM.
(A) 12.1%

(Q) Given C[C@@H](NC(=O)c1cccc(NCc2nnc(-c3ccncn3)n2C)c1)c1cccc(OCCCCCCOCCOCCOCCCC(=O)N2CCN(c3ccc4c(c3)CN(C3CCC(=O)NC3=O)C4=O)CC2)c1 (some centres unmarked) , state its recorded inhibition at 0.3 µM.
(A) 58%

Where do these numbers come from? They come from patent US20240174637A1.
